# TARGET_OF_ASSAY: T1, Rhesus-ICAM1 (rhesus, UniProt Q5NKV6 28-480, limits assumed)
# T1 sequence (looked up): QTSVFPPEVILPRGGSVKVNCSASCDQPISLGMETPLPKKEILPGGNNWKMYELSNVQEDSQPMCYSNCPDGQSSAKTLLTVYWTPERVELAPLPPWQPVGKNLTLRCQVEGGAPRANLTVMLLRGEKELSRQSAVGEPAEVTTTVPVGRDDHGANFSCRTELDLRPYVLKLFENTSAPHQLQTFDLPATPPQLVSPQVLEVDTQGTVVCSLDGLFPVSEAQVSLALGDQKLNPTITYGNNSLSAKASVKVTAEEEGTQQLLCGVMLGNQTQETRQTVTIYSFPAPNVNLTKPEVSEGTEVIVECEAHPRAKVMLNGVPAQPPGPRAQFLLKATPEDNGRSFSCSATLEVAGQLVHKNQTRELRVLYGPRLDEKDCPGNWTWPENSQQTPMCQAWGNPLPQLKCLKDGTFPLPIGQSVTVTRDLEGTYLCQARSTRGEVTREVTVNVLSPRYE
# PROCEDURE_TEXT: SPR (Biacore 8K), antibody captured, antigen injected
MEASUREMENT_LABEL: pKd
# reply with the number alone; pKd is -log10 of concentration in mol/L

May I ask what pKd has been recorded for 6G8 (antibody, human IgG1, kappa, V domains shown, Rabbit-human chimeric anti-ICAM1: rabbit VH and VL on human IgG1 and kappa constant regions) VH: QSVEESGGGLVKPGGTLTLTCTVSGFSLSSYAMGWVRQAPGKGLEYIGIIGSSGSTYYATWAKGRFTISKTSTTVDLKITSPTTEDTATYFCVRDPYDSYDAAYRLWGPGTLVTVSS VL: AYDMSQTPASVEVAVGGTVTIKCQASQSIYSYLSWYQQKPGQRPKLLIYDASKLASGVPSRFTGSGSGTEFTLTISGVQSDDAATYYCQQAYSSSNVDNVFGGGTEVVVKR ?
9.07

Cited source: patent US20220002432A1
